Origin of the recorded values: PubChem BioAssay

Biological target: Steroidogenic factor 1 (Homo sapiens)
Test: SF1 (NR5A1) inverse agonists, counter-screen for LRH-1 inverse agonist project, cell-based, luminescence, high throughput (AID 651614);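 also: cells cotransfected with StAR promoter reporter and SF1 expression vector; 0% = vehicle on cells with receptor and 100% = vehicle on cells lacking receptor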
Conditions: cell-based SF1 luciferase reporter, at 3.6 µM, active compounds read high
Reported inhibition values for the following molecules.
measure_name: inhibition (%)

INSERT INTO measurements (molecule, reported_measurement) VALUES
  ('CC(NC(=O)CCl)c1ccccc1Br (configuration not stated)', 57.4),
  ('CN(C)c1ccc(/C=C/c2ccc3c4ccccc4ccc3[n+]2-c2ccccc2)cc1', 92.5),
  ('O=C(Nc1cccc2ncccc12)c1ccc([N+](=O)[O-])o1', 64.4),
  ('C#CC[N+](C)(C)CCCCCCCCCCCC', 65.8),
  ('Cc1ccc(OCc2nnc(SCC(=O)Nc3ccc4c(c3)OCCO4)n2Cc2ccco2)cc1', 41.2),
  ('COc1ccc(Nc2ccncc2[N+](=O)[O-])cc1', 64.4),
  ('CC1=[N+](C)c2c(ccc3cccnc23)C1(C)C', 58.7);
